B1: Azoarcus group I ribozyme (parent)
chain: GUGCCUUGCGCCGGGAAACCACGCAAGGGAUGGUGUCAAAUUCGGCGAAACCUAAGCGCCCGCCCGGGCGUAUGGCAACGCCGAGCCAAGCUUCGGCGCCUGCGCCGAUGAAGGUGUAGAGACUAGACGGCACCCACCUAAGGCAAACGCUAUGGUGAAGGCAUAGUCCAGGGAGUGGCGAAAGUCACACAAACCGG

Variants of: B1
Assay: reverse-splicing fitness (ratio to wild type); higher = more active; in vitro selection; Mg2+ level not given
Cut-off 0.01 on reverse-splicing fitness, inclusive. At or above means 1 (yes); below means 0 (no).

Challenge: Exam item: decide whether the reported reverse-splicing fitness for C82U A111U A120G A145C C150A C169U U176A is at least 0.01.
Response given: 1 (yes)

Challenge: Exam item: decide whether the reported reverse-splicing fitness for C82A A111C A145G U176A is at least 0.01.
Response given: 1 (yes)

Challenge: Exam item: decide whether the reported reverse-splicing fitness for C82G A111U A145C C169G is at least 0.01.
Response given: 0 (no)

Challenge: Exam item: decide whether the reported reverse-splicing fitness for C82G A111G A120C A145G C150U C169G U176G is at least 0.01.
Response given: 0 (no)

Challenge: Exam item: decide whether the reported reverse-splicing fitness for C82A A111C A120G A145U C150U U176G is at least 0.01.
Response given: 0 (no)

Challenge: Exam item: decide whether the reported reverse-splicing fitness for C82U A111U A145U C150U C169G U176C is at least 0.01.
Response given: 1 (yes)

Challenge: Exam item: decide whether the reported reverse-splicing fitness for A111G A120C A145U C150U C169G U176G is at least 0.01.
Response given: 0 (no)

Challenge: Exam item: decide whether the reported reverse-splicing fitness for C82G A111U A145U C150A C169A U176G is at least 0.01.
Response given: 0 (no)

Challenge: Exam item: decide whether the reported reverse-splicing fitness for C82U A120U C169U U176C is at least 0.01.
Response given: 0 (no)

Challenge: Exam item: decide whether the reported reverse-splicing fitness for A111C A145G C150G C169U U176G is at least 0.01.
Response given: 0 (no)

Challenge: Exam item: decide whether the reported reverse-splicing fitness for C82U A111C A120C A145U C150G U176C is at least 0.01.
Response given: 0 (no)

Challenge: Exam item: decide whether the reported reverse-splicing fitness for C82G A111C A120C A145G C150A C169A U176A is at least 0.01.
Response given: 1 (yes)

Challenge: Exam item: decide whether the reported reverse-splicing fitness for C82U A120C A145U C150G C169A U176C is at least 0.01.
Response given: 0 (no)

Challenge: Exam item: decide whether the reported reverse-splicing fitness for C82U A111U C150A C169G U176G is at least 0.01.
Response given: 0 (no)

Challenge: Exam item: decide whether the reported reverse-splicing fitness for C82U A111U C150G C169G is at least 0.01.
Response given: 0 (no)

Challenge: Exam item: decide whether the reported reverse-splicing fitness for C82A A111G A120C A145G C150A U176A is at least 0.01.
Response given: 1 (yes)

Challenge: Exam item: decide whether the reported reverse-splicing fitness for A111C A145C is at least 0.01.
Response given: 1 (yes)

Challenge: Exam item: decide whether the reported reverse-splicing fitness for A111G A120G A145C C150G C169U U176A is at least 0.01.
Response given: 1 (yes)

Challenge: Exam item: decide whether the reported reverse-splicing fitness for A111C A145U C150A C169U U176C is at least 0.01.
Response given: 1 (yes)

Challenge: Exam item: decide whether the reported reverse-splicing fitness for C82G A120G A145U C169G U176A is at least 0.01.
Response given: 1 (yes)

Challenge: Exam item: decide whether the reported reverse-splicing fitness for C82G A111U A145C C150U U176A is at least 0.01.
Response given: 1 (yes)
